target: KCNQ2/3 channels (Homo sapiens, UniProt O43525+O43526); construct: expressed in transfected cells; experiment: Fluorescence assay using a voltage sensitive dye (fluorimetry); assay type: cell-based; conditions: CHO-K1, plateau effect relative to saturated retigabine (50 μM) = 100%; CHO-K1 cells expressing KCNQ2/3; negative values = antagonistic; read-out: Fluorimetry % efficacy (retigabine = 100%)
Sequence (O43526 whole entry): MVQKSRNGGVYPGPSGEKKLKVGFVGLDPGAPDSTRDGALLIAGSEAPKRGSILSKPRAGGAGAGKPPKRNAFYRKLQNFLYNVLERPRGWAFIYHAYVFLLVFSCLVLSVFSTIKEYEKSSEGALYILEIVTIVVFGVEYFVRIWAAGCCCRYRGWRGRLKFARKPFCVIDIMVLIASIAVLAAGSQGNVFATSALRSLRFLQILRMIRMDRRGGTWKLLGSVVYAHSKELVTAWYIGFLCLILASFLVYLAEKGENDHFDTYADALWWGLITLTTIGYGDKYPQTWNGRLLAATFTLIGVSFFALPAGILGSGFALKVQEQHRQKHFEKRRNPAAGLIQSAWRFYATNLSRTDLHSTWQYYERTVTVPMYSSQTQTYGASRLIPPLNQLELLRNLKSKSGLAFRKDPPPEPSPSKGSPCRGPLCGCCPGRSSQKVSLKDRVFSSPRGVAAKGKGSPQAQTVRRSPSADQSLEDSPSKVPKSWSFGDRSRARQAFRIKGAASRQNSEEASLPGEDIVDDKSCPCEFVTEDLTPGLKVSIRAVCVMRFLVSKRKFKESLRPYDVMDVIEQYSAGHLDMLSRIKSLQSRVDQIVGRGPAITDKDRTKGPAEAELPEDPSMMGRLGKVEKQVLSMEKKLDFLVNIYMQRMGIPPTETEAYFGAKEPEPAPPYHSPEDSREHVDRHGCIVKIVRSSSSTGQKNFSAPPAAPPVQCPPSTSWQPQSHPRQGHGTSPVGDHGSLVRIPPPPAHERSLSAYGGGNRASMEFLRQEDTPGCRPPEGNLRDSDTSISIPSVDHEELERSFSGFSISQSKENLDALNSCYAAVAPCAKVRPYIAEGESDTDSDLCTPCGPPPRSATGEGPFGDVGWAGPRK
Sequence (O43525 whole entry): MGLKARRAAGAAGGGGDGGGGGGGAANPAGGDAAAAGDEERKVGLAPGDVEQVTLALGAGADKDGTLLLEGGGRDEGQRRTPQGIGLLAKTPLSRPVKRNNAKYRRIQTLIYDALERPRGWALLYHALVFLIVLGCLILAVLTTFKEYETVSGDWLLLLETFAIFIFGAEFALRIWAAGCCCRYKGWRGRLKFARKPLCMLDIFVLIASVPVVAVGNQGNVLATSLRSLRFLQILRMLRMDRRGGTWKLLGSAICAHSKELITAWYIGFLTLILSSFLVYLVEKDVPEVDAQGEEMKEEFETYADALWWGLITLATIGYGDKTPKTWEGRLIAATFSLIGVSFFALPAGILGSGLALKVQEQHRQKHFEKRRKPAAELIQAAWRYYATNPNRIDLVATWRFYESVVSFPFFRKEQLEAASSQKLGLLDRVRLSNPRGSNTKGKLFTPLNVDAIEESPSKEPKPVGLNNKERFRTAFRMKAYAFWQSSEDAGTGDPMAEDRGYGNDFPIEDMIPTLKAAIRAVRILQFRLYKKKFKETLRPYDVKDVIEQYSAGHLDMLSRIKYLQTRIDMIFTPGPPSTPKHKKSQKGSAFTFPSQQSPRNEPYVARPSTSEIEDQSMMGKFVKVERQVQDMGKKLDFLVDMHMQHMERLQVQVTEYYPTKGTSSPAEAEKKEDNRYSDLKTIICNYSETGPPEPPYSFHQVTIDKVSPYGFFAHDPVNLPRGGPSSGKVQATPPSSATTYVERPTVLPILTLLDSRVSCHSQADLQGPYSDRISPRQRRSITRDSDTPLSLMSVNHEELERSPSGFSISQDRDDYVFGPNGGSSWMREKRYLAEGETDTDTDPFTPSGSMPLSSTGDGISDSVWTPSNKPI
Lab note - cut at 200% for Emax: yes if strictly below, no if not.

compound="CCSc1nc(N2CCOCC2)cc(C)c1C(=O)NCc1ccc(F)cc1F [Example 107]" discrete_label=yes
compound="COCCOc1nc(N2CCOCC2)cc(C)c1C(=O)NCc1cccc(F)c1 [Example 21]" discrete_label=yes
compound="CCOc1nc(N2CCOC[C@H]2C)cc(C)c1C(=O)NCCCC(C)(C)C [Example 187]" discrete_label=no
compound="CCSc1nc(N2Cc3ccccc3C2)cc(C)c1C(=O)NCc1cccc(F)c1 [Example 303]" discrete_label=yes
compound="CCSc1nc(N2CCOCC2)cc(C)c1C(=O)NCCC(C)C [Example 42]" discrete_label=yes
compound="CCSc1nc(N2CCOCC2)cc(OC)c1C(=O)NCc1cccc(F)c1 [Example 336]" discrete_label=yes
compound="CCSc1nc(N2CCO[C@@H](CO)C2)cc(C)c1C(=O)NCc1cccc(F)c1 [Example 292]" discrete_label=yes
compound="CCSc1nc(N2CCOCC2)cc(C)c1C(=O)NCc1cccc(C#N)c1 [Example 102]" discrete_label=yes
compound="COc1nc(N2CCOC[C@H]2C)cc(C)c1C(=O)NCCCC(F)(F)F [Example 236]" discrete_label=no
compound="CCSc1nc(N2CCc3nc(C(F)(F)F)ccc3C2)cc(C)c1C(=O)NCc1cccc(F)c1 [Example 232]" discrete_label=yes
compound="CCSc1nc(N2CCOCC2)cc(C)c1C(=O)NCc1ccc2c(c1)OCO2 [Example 134]" discrete_label=yes
compound="CCSc1nc(N2CCOCC2)cc(C)c1C(=O)NCCC(C)(C)C [Example 104]" discrete_label=yes
compound="COc1nc(N2CCOCC2)cc(C)c1C(=O)NCc1cccc(F)c1 [Example 19]" discrete_label=yes
compound="CCSc1nc(N2CCOCC2)cc(C)c1C(=O)NCCCCC#N [Example 163]" discrete_label=yes
compound="CCSc1nc(N2CCO[C@@H](COC)C2)cc(C)c1C(=O)NCc1ccc(Cl)cc1 [Example 254]" discrete_label=yes
compound="CCSc1nc(N2CCOCC2)cc(C)c1C(=O)NCCC1CCCCC1 [Example 106]" discrete_label=yes
compound="CCSc1nc(N(C)C2CCOC2)cc(C)c1C(=O)NCc1cccc(F)c1 (stereo not drawn) [Example 301]" discrete_label=yes
compound="COc1nc(N2CCOC[C@H]2C)cc(C)c1C(=O)NCc1ccc(F)c(F)c1 [Example 226]" discrete_label=yes
compound="COCCOc1nc(N2CCOCC2)cc(C)c1C(=O)NCCCC(C)(C)C [Example 349]" discrete_label=no
compound="CCSc1nc(N2CCOCC2)cc(C)c1C(=O)NCCCCC(C)(C)C [Example 116]" discrete_label=no
compound="CCSc1nc(N(C)c2ccncc2)cc(C)c1C(=O)NCc1cccc(F)c1 [Example 200]" discrete_label=yes
compound="CCSc1nc(N(C)CC2CCCOC2)cc(C)c1C(=O)NCc1cccc(F)c1 (stereo not drawn) [Example 175]" discrete_label=yes
compound="CCSc1nc(N2CCN(C)CC2)cc(C)c1C(=O)NCc1cccc(F)c1 [Example 31]" discrete_label=yes
compound="CCSc1nc(N(C)C2CCCC(OC)C2)cc(C)c1C(=O)NCc1cccc(F)c1 (stereo not drawn) [Example 307]" discrete_label=yes
compound="CCCc1nc(N2CCOC[C@H]2C)cc(C)c1C(=O)NCc1ccc(F)cc1 [Example 197]" discrete_label=no
compound="CCSc1nc(N(C)C2CCOCC2)cc(C)c1C(=O)NCc1cccc(F)c1 [Example 258]" discrete_label=yes
compound="CCSc1nc(N2CCOC[C@H]2C)cc(C)c1C(=O)NCc1ccc(F)c(COC)c1 [Example 352]" discrete_label=yes
compound="CCN(C)c1nc(N2CCOCC2)cc(C)c1C(=O)NCc1ccc(F)cc1 [Example 174]" discrete_label=no
compound="CCCc1nc(N2CCOCC2)cc(C)c1C(=O)NCc1ccc(F)cc1 [Example 29]" discrete_label=yes
compound="CCSc1nc(N2CCOC[C@H]2C)cc(C)c1C(=O)NCc1ccc(F)cc1 [Example 177]" discrete_label=yes
compound="CCSc1nc(N2CCCCCC2)cc(C)c1C(=O)NCc1cccc(F)c1 [Example 136]" discrete_label=yes
compound="CCOc1nc(N2CCOCC2)cc(C)c1C(=O)NCc1ccc(Cl)cc1 [Example 166]" discrete_label=yes

###

molecular target: KCNQ2/3 channels (Homo sapiens, UniProt O43525+O43526); construct: expressed in transfected cells; test: Fluorescence assay using a voltage sensitive dye (fluorimetry); type: cell-based; conditions: CHO-K1 cells expressing KCNQ2/3; IC50 where % efficacy is negative; read-out: Fluorimetry EC50/IC50
pEC50: −log10 of the molar value.
endpoint: pEC50

compound="CCSc1nc(N2CCC(OC)CC2)cc(C)c1C(=O)NCc1cccc(F)c1 [Example 49]" tested_system="KCNQ2/3 channels (Homo sapiens, UniProt O43525+O43526)" reading=5.83
compound="Cc1cc(N2CCOCC2)nc(C(C)C)c1C(=O)NCc1ccc(F)c(F)c1 [Example 310]" tested_system="KCNQ2/3 channels (Homo sapiens, UniProt O43525+O43526)" reading=7.37
compound="CSc1nc(N2CCOC[C@H]2C)cc(C)c1C(=O)NCCCC(C)(C)C [Example 192]" tested_system="KCNQ2/3 channels (Homo sapiens, UniProt O43525+O43526)" reading=7.34
compound="Cc1cc(N2CCOCC2)nc(OCC(F)F)c1C(=O)NCc1ccc(Cl)cc1 [Example 270]" tested_system="KCNQ2/3 channels (Homo sapiens, UniProt O43525+O43526)" reading=7.62
compound="CCSc1nc(N(C)c2ccccn2)cc(C)c1C(=O)NCc1cccc(F)c1 [Example 170]" tested_system="KCNQ2/3 channels (Homo sapiens, UniProt O43525+O43526)" reading=5.91
compound="CCSc1nc(N2CCOCC2)cc(C)c1C(=O)NCc1ccc(F)cc1O [Example 18]" tested_system="KCNQ2/3 channels (Homo sapiens, UniProt O43525+O43526)" reading=7.01
compound="CCSc1nc(N(C)CC(C)=O)cc(C)c1C(=O)NCc1cccc(F)c1 [Example 253]" tested_system="KCNQ2/3 channels (Homo sapiens, UniProt O43525+O43526)" reading=5.24
compound="COc1nc(N2CCOCC2)cc(C)c1C(=O)NCc1cc(F)cc(F)c1 [Example 3]" tested_system="KCNQ2/3 channels (Homo sapiens, UniProt O43525+O43526)" reading=6.63
compound="CCSc1nc(N2CCC3(COC3)C2)cc(C)c1C(=O)NCc1cccc(F)c1 [Example 222]" tested_system="KCNQ2/3 channels (Homo sapiens, UniProt O43525+O43526)" reading=5.14

###

target: KCNQ2/3 channels (Homo sapiens, UniProt O43525+O43526); construct: expressed in transfected cells; test: Fluorescence assay using a voltage sensitive dye (fluorimetry); assay type: cell-based; details: CHO-K1 cells expressing KCNQ2/3; IC50 where % efficacy is negative; read-out: Fluorimetry EC50/IC50
pEC50: −log10 of the molar value.
# reported pEC50; entries follow
endpoint: pEC50

compound=CCSc1nc(N2CCOCC2)cc(C)c1C(=O)NCc1ccc(COC)cc1 reading=5.60
compound="CCSc1nc(N2CCOCC2)cc(C)c1C(=O)NCCC(O)C(C)(C)C (stereo not drawn)" reading=6.61
compound=COc1nc(N2CCOC[C@H]2C)cc(C)c1C(=O)NCCCC(C)(C)C reading=7.20
compound=CCCc1nc(N2CCOCC2)cc(C)c1C(=O)NCc1cc(F)cc(F)c1 reading=7.10
compound=CCSc1nc(N2CCOCC2)cc(C)c1C(=O)NCCCc1ccccc1 reading=6.61
compound="CCSc1nc(N2CCOCC2)cc(C)c1C(=O)NCC(O)Cc1ccccc1 (stereo not drawn)" reading=5.22
compound=CCOc1nc(N2CCOC[C@H]2C)cc(C)c1C(=O)NCc1ccc(Cl)cc1 reading=6.86
compound=CCCc1nc(N2CCOCC2)cc(C)c1C(=O)NCc1ccc(C(F)(F)F)cc1 reading=6.99
compound=CCSc1nc(N2CCOCC2)cc(C)c1C(=O)NCCC1CCCC1 reading=7.06
compound=CCSc1nc(N2CCOC[C@H]2C)cc(C)c1C(=O)NCc1ccc(C(F)(F)F)cc1 reading=7.25
compound=COc1nc(N2CCOC[C@H]2C)cc(C)c1C(=O)NCc1ccc(C(F)(F)F)cc1 reading=6.99
compound=Cc1cc(N2CCOCC2)nc(N(C)C)c1C(=O)NCc1cccc(F)c1 reading=5.98
compound=CCSc1nc(N2CCO[C@@H](C)C2)cc(C)c1C(=O)NCc1cccc(F)c1 reading=6.77
compound=CCOc1nc(N2CCOCC2)cc(C)c1C(=O)NCc1ccc(F)cc1 reading=6.67
compound=CCSc1nc(N2CCOCC2)cc(C)c1C(=O)NCc1cccc(OC(F)(F)F)c1 reading=7.13
compound=COCCOc1nc(N2CCOCC2)cc(C)c1C(=O)NCCCC(C)(C)C reading=6.55
compound="CCSc1nc(N2CCOC(CCOC)C2)cc(C)c1C(=O)NCc1cccc(F)c1 (stereo not drawn)" reading=6.14
compound=CCSc1nc(N2CCOCC2)cc(C)c1C(=O)NCc1cccc(C#N)c1 reading=5.91
